Answer each item with its documented fractional viability.
test system: TYKNU; assay: fractional viability relative to vehicle; higher = less growth inhibition; details: 2uM; 72 h; genotype: DNM1L knockout (sgDNM1L #1)
Over roughly 2,000 compounds, “fractional viability relative to vehicle” has its median near 0.91; the lowest 2% begin near 0.045. Shown is part of a subset that was picked to be rich in the lowest values.

Value of measured fractional viability for the entry CCc1ccc(OCc2ccccc2C(=O)Nc2ccc3nc(C)cc(N)c3c2)cc1 : 0.117

Value of measured fractional viability for the entry COc1cc2c(NC3CCN(CC4CCCCC4)CC3)nc(N3CCCN(C(C)C)CC3)nc2cc1OCCCN1CCCCC1 : 0.657

Value of measured fractional viability for the entry CC(=O)Nc1ccccc1 [Acetanilide] : 0.896

Value of measured fractional viability for the entry NNC(=O)c1ccncc1 : 0.893

Value of measured fractional viability for the entry O=C(/C=C/c1ccc2ccccc2n1)c1ccncc1 : 0.0494

Value of measured fractional viability for the entry COC(=O)c1ccc2c(c1)[nH]c1ncnc(NCCCN3CCCCC3)c12 : 0.884

Value of measured fractional viability for the entry C/C(=N\NC(=S)N1CCC1)c1ccccn1 : 0.171

Value of measured fractional viability for the entry CCCC(=O)Nc1cccc(NC(=O)c2ccccc2Br)c1 : 1.11

Value of measured fractional viability for the entry COc1cc2nc(N3CCCC3)nc(NCCCCCN3CCCC3)c2cc1OC : 0.426

----------
system: TYKNU; test: fractional viability relative to vehicle; higher = less growth inhibition; conditions: 2uM; 72 h; genotype: DNM1L knockout (sgDNM1L #1)
Counter-ions that a name gives are not always drawn. Whole data set: some 2,000 compounds, median “fractional viability relative to vehicle” near 0.91, cut for the lowest 2% near 0.045. Only a selection was taken, and the lowest values are over-represented in it overall.
Answer each item with its documented fractional viability.
Respond using a number only.

The reported TYKNU fractional viability of CC(C)(C)NCC(O)COc1cccc2c1CCC(=O)N2 (stereo not drawn) [Carteolol HCl] is 0.876

The reported TYKNU fractional viability of NC(=O)NO [Hydroxyurea] is 0.92

The reported TYKNU fractional viability of CCOC(=O)c1c(CSc2ccccc2)n(C)c2cc(Br)c(O)c(CN(C)C)c12 [Arbidol HCl] is 0.913

----------
tested on: TYKNU; experiment: fractional viability relative to vehicle; TYKNU is a high-grade serous ovarian cancer line; higher = less growth inhibition; conditions: 10uM; 72 h; genotype: sgCTRLA1 (non-targeting control)
Whole data set: some 2,000 compounds, median “fractional viability relative to vehicle” near 0.91, cut for the lowest 2% near 0.045. Many of the other results were omitted from the sample, so the lowest values are more common in it than they were.
We label by threshold. Values of fractional viability strictly beneath 0.2 are 1 (yes). Values of 0.2 and up are 0 (no).

Lookup: Check if fractional viability falls below 0.2 for COC(=O)C[C@H](NC(=O)[C@H](C)NC(=O)[C@@H](NC(=O)OCc1ccccc1)C(C)C)C(=O)CF .
Found: 0 (no)

Lookup: Check if fractional viability falls below 0.2 for OC(CNCC(O)C1CCc2cc(F)ccc2O1)C1CCc2cc(F)ccc2O1 (stereo not drawn) .
Found: 0 (no)

Lookup: Check if fractional viability falls below 0.2 for C#CC[C@H](c1nc2cc(Cl)ccc2c(=O)n1Nc1ccccc1)N(CCCN)C(=O)c1cccc(Cl)c1F .
Found: 1 (yes)

Lookup: Check if fractional viability falls below 0.2 for O=C(O)c1ccc(N2C(=O)/C(=C\c3ccc(-c4ccc([N+](=O)[O-])cc4)o3)C=C2c2ccccc2)cc1 .
Found: 0 (no)

Lookup: Check if fractional viability falls below 0.2 for C[N+](C)(C)CCO.[Cl-] [Choline Chloride] .
Found: 0 (no)

Lookup: Check if fractional viability falls below 0.2 for COc1cccc(-n2c(=O)[nH]c3cc(Cl)n(-c4ccc(-c5cccc(OC)c5O)cc4)c3c2=O)c1 .
Found: 0 (no)

Lookup: Check if fractional viability falls below 0.2 for Cc1ccc(C(=O)N(CCCN)[C@@H](c2nc3cc(Cl)ccc3c(=O)n2Cc2ccccc2)C(C)C)cc1 .
Found: 1 (yes)
